Each entry below carries its recorded pKi.
# system name: PDE10A (Rattus norvegicus)
# Sequence (Q9QYJ6 whole entry): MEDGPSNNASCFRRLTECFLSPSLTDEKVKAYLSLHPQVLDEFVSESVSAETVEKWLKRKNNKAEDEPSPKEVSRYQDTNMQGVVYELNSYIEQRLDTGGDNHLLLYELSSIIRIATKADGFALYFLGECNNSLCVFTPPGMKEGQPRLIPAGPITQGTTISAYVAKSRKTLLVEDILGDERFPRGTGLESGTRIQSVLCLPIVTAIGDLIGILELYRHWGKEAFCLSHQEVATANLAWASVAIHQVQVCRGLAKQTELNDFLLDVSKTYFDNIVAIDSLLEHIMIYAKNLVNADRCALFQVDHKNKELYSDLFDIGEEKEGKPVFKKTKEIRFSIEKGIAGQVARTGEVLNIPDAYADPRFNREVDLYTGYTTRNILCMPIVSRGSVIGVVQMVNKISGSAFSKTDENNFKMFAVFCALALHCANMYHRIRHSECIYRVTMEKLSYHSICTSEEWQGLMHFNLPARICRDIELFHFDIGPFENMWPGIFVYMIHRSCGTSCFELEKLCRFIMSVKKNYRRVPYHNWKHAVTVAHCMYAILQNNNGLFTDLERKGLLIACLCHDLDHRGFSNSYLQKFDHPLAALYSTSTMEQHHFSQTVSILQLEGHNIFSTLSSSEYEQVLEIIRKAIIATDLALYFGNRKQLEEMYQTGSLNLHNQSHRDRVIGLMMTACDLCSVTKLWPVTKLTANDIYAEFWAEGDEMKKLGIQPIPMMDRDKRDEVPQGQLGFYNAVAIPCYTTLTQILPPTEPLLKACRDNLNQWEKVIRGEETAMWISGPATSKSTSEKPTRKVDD
# Format: binding
pKi: −log10 of the molar value.

[
  {
    "compound": "Cc1ccccc1NC(=N)Nc1ccccc1C",
    "value measured": "< 6.00"
  }
]

Proceeding to the next compound to report its pKi.
Lookup: pKi / PDE10A (Rattus norvegicus) / CCc1cc(Cl)c(OC)c(C(=O)NC[C@@H]2CCCN2CC)c1O [Eticlopride] < 6.00
